- Tested on: SK-MEL-28 melanoma
- assay-protocol: NCI-60 one-dose screen, 48 h (100 = growth as untreated, 0 = no growth, -100 = all killed)
- condition-summary: 10 µM unless noted
This is part of a sample that, as a whole, favours compounds with a hit. Of some 83,000 tested, about 20% had one in any assay.
growth values, listed per item
Numeric only. Scale: %

- COc1cnc2c(c1)C(=O)c1c-2n(CCCN2CCN(CCO)CC2)c(=O)c2cc([N+](=O)[O-])ccc12: 102
- C=C(C)[C@@H]1CC[C@]2(/C=N/Nc3ccncc3)CC[C@]3(C)[C@H](CC[C@@H]4[C@@]5(C)CCCNC(C)(C)[C@@H]5CC[C@]43C)[C@@H]12: 95.4
- Cn1c(=O)c2c(nc(N3CCCC3)n2C)n(C)c1=O: 104

So what's the measured growth for this one? COc1cc(-c2cc(-c3nc4cc(Cl)c(Cl)cc4[nH]3)[nH]n2)cc(OC)c1OC
47.6

So what's the measured growth for this one? Cc1cc2nc3c4cc(Cl)ccc4n(CCN(C)C)c3nc2cc1C
-59.3

So what's the measured growth for this one? Cc1csc(Nc2nc(-c3cccc(Br)c3)nc(C(Cl)(Cl)Cl)n2)n1
47

So what's the measured growth for this one? CCN(CC)CCCCCCNc1ccnc2cc(Cl)ccc12
106

So what's the measured growth for this one? COc1ccc2c(c1)c(-c1nc(-c3cn(C)c4ncccc34)cs1)cn2CCN
99

So what's the measured growth for this one? COc1ccc2c(c1)c(-c1nc(-c3c[nH]c4ncccc34)cs1)cn2C
87.9
